molecular target: furin, P09958; test: furin cleavage Z-score vs untreated control; higher = more cleavage, active = 3.5 or more, inactive = 1 or less, 8 variable residues between constant flanks; conditions: 7.5 min;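 also: purified furin at 1:10 enzyme:substrate in 50 mM HEPES pH 7.5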
Sequence (P09958 whole entry): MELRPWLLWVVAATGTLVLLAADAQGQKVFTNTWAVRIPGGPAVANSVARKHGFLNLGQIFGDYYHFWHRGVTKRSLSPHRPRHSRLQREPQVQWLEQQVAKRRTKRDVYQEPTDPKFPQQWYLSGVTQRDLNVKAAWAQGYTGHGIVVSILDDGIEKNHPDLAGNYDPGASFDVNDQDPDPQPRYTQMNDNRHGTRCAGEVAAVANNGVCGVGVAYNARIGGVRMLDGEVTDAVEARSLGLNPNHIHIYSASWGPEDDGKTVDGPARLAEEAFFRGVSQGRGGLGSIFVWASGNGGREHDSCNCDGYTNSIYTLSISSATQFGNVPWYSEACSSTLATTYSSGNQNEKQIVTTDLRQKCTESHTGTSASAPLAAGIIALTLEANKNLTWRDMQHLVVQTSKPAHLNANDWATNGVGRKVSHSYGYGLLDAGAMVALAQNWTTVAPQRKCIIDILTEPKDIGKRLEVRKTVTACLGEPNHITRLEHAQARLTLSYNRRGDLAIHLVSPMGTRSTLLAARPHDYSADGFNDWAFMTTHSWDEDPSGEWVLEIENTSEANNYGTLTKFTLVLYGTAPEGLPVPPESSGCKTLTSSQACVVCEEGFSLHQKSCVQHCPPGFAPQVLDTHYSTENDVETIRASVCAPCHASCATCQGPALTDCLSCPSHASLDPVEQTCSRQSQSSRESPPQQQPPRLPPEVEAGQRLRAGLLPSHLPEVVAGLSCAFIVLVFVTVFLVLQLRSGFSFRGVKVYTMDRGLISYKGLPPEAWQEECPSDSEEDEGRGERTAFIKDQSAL
The other results are listed elsewhere or left out. How many sequences the whole screen found active is unknown.
Could you label it T if measured furin cleavage Z-score is 0.1 or higher, and F otherwise?

sequence entry | classification
CASIEPLDLPAGNASASA [HC1597] | F
CAPVVPQSFQAGNASASA [HC769] | T
CASTPCSMHLAGNASASA [HC2526] | T
CAESSRLLRSAGNASASA [FS-994] | F
CAADLMGYIPAGNASASA [HC226] | F
CATCRNMWSGAGNASASA [HC1186] | T
CAAPARWPRSAGNASASA [FS-974] | T
